Numbers sourced from patent EP0993437B1.

# Measurement Target: MEK
# Run Description: Cascade assay for inhibitors of the MAP kinase pathway (In Vitro)
# Method: Incorporation of ^32P into myelin basic protein (MBP) was assayed in the presence of a glutathione S-transferase fusion protein containing p44MAP kinase (GST-MAPK) and a glutathione S-transferase fusion protein containing p45MEK (GST-MEK). The assay solution contained 20 mM HEPES, pH 7.4, 10 mM MgCl2, 1-mM MnCl2, 1 mM EGTA, 50 µM [γ-^32P]ATP, 10 µg GST-MEK, 0.5 µg GST-MAPK and 40 µg MBP in a final volume of 100 µL. […] Compounds were assessed at 10 µM for ability to inhibit incorporation of ^32P. […]
Endpoint: IC50 (nM)

Compound: Cc1cc(I)ccc1Nc1c(C(=O)NN(C)C)cc(Br)c(F)c1F
Measurement Target: MEK
IC50 (nM): 43
//
Compound: O=C(O)c1cc([N+](=O)[O-])c(Nc2ccc(I)cc2Cl)c(F)c1Nc1ccc(I)cc1Cl
Measurement Target: MEK
IC50 (nM): 34
//
Compound: Cc1cc(I)ccc1Nc1cc(Cl)ccc1C(=O)O
Measurement Target: MEK
IC50 (nM): 446
//
Compound: Cc1cc(I)ccc1Nc1c(F)cccc1C(=O)O
Measurement Target: MEK
IC50 (nM): 323
//
Compound: Cc1cc(I)ccc1Nc1ccc(Cl)cc1CO
Measurement Target: MEK
IC50 (nM): 179

(P) O=C(O)c1ccc(F)cc1Nc1ccc(I)cc1Cl
(Q) Cc1cc(I)ccc1Nc1ccc([N+](=O)[O-])cc1CO
// query Please indicate which entry, P or Q , has the lower recorded IC50 value. When you have decided, please share the label of that item.
// result P
(P: 108 nM, Q: 887 nM)
